target entity: IDH2 R140Q (Homo sapiens, UniProt P48735, R140Q)
Sequence (P48735 40-452 R140Q): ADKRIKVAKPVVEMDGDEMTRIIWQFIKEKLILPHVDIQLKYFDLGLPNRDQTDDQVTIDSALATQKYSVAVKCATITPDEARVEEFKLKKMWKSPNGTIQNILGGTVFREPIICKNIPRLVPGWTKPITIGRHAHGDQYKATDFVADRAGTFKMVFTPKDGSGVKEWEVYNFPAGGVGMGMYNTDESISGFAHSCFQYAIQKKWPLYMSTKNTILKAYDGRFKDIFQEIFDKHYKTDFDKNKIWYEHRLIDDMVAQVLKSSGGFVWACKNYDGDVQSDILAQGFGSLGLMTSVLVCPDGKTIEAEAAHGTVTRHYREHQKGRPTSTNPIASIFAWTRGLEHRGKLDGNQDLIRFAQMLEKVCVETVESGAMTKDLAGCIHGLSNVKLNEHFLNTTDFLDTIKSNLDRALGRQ
assay remarks: IDH2 R140Q enzymatic assay (cofactor depletion, similar format)
Assay type: biochemical
measurement parameters: read-out: Enz R140Q
pIC50: −log10 of the molar value.
Measured pIC50, listed per entry.

Example results:
compound	target entity	pIC50
CC(C)Nc1nc(Nc2cccc(S(C)(=O)=O)c2)nc(-c2cc(Cl)cc(Cl)n2)n1	IDH2 R140Q (Homo sapiens, UniProt P48735, R140Q)	6.00 to 7.00
CC(C)CNc1nc(Nc2cccc(S(C)(=O)=O)c2)nc(-c2cccc(C(F)(F)F)n2)n1	IDH2 R140Q (Homo sapiens, UniProt P48735, R140Q)	6.00 to 7.00
CC(C)CNc1nc(Nc2cncc(F)c2)nc(-c2cccc(Cl)n2)n1	IDH2 R140Q (Homo sapiens, UniProt P48735, R140Q)	6.00 to 7.00
CC(C)CNc1nc(Nc2ccnc(C(F)(F)F)c2)nc(-c2cccc(N)n2)n1	IDH2 R140Q (Homo sapiens, UniProt P48735, R140Q)	6.00 to 7.00
CCNS(=O)(=O)c1cccc(Nc2nc(NC(C)C)nc(-c3ccccc3)n2)c1	IDH2 R140Q (Homo sapiens, UniProt P48735, R140Q)	> 7.00
COCC(C)Nc1nc(Nc2ccnc(C(F)(F)F)c2)nc(-c2cccc(Cl)n2)n1 (centres unmarked)	IDH2 R140Q (Homo sapiens, UniProt P48735, R140Q)	6.00 to 7.00
CC(C)Nc1nc(Nc2cncc(F)c2)nc(-c2ncccc2F)n1	IDH2 R140Q (Homo sapiens, UniProt P48735, R140Q)	6.00 to 7.00
CC(C)Nc1nc(Nc2ccncc2)nc(-c2ccccc2Cl)n1	IDH2 R140Q (Homo sapiens, UniProt P48735, R140Q)	> 7.00
CC1(Nc2nc(Nc3ccnc(C4CC4)c3)nc(-c3cccc(C(F)(F)F)n3)n2)CC1	IDH2 R140Q (Homo sapiens, UniProt P48735, R140Q)	6.00 to 7.00
CC(C)(CO)CNc1nc(Nc2ccnc(Cl)c2)nc(-c2ccccc2)n1	IDH2 R140Q (Homo sapiens, UniProt P48735, R140Q)	> 7.00

Entry under test: CC(O)CNc1nc(Nc2ccnc(C(F)(F)F)c2)nc(-c2cccc(Cl)n2)n1 (centres unmarked) . Its pIC50 was 5.00 to 6.00

# pIC50 (compound: `COC(=O)Nc1cccc(-c2nc(Nc3ccnc(C(F)(F)F)c3)nc(NC(C)C)n2)n1` ) is 6.00 to 7.00

What the record says about `CC(C)Nc1nc(Nc2cncc(C(F)(F)F)c2)nc(-c2cccc(C(F)(F)F)n2)n1` : pIC50 is 6.00 to 7.00

pIC50 in this record for `CC(C)Nc1nc(Nc2cc(F)cc(F)c2)nc(-c2nc(F)ccc2F)n1` : > 7.00

The compound `CC(F)(F)c1cccc(-c2nc(NCC3CC3)nc(Nc3ccnc(C4(C#N)CC4)c3)n2)n1` showed pIC50 equal to 6.00 to 7.00

Source listed as patent US9512107B2.
